- TEST_SYSTEM: Human erythrocyte 20S proteasome (Homo sapiens)
- Construct: Enzyme: Human erythrocyte 20S proteasome; from tissue; host or cells: human erythrocytes
- EXPERIMENT: In vitro enzymatic assay of proteasome inhibitory activity (Suc-Leu-Leu-Val-Tyr-AMC substrate)
- Type: biochemical
- CONDITION_LABEL: Concentration 500 nM
Outcome: Y for inhibition at 0.5 µM of at least 30%; N for anything lower.

CC(C)C[C@H](NC(=O)[C@@H]1N[C@H](c2cccnc2)[C@@H]([N+](=O)[O-])[C@@H]1c1ccccc1)B(O)O | Y
CC(C)C[C@H](NC(=O)[C@@H]1N[C@H](c2ccccc2)[C@@H]([N+](=O)[O-])[C@@H]1c1ccc([N+](=O)[O-])cc1)B(O)O | Y
CC(C)C[C@H](NC(=O)[C@@H]1N[C@H](c2ccccc2)[C@@H]([N+](=O)[O-])[C@@H]1c1ccc2ccccc2c1)B(O)O | Y
CC(C)C[C@H](NC(=O)[C@@H]1N[C@H](c2cccc3ccccc23)[C@H]([N+](=O)[O-])[C@H]1c1ccccc1)B(O)O | Y
Cc1ccc([C@H]2[C@H]([N+](=O)[O-])[C@@H](c3ccccc3)N[C@H]2C(=O)N[C@@H](CC(C)C)B(O)O)cc1 | Y
CC(C)C[C@H](NC(=O)[C@@H]1CCCN1)B(O)O [MG-319, reference compound] | N
COC(=O)[C@H]1[C@H](C(=O)OC)[C@H](c2ccccc2)N[C@@H]1C(=O)N[C@@H](CC(C)C)B(O)O | N

---

- Test system: NCI-H1975
- EXPERIMENT: Cancer cell growth inhibition, 72 h treatment
- Type: cell-based
- CONDITION_LABEL: Homo sapiens, Lung cancer NCI-H1975, Hexosaminidase assay (*)
pEC50: −log10 of the molar value.
ATTRIBUTE_MEASURED: pEC50

CC(C)C[C@H](NC(=O)[C@@H]1N[C@H](c2ccccc2)[C@@H]([N+](=O)[O-])[C@@H]1c1cccs1)B(O)O | 5.96
CC(C)C[C@H](NC(=O)[C@@H]1N[C@H](c2ccccc2)[C@@H]([N+](=O)[O-])[C@@H]1c1ccco1)B(O)O | 6.08
CC(C)C[C@H](NC(=O)[C@@H]1N[C@H](c2ccccc2)[C@@H]([N+](=O)[O-])[C@@H]1c1ccc(F)cc1)B(O)O | 5.14

---

- Tested on: T47D
- EXPERIMENT: Cancer cell growth inhibition, 72 h treatment
- Assay type: cell-based
- CONDITION_LABEL: Homo sapiens, Breast cancer T47D, Alamar Blue
Measured EC50, listed per entry.
ATTRIBUTE_MEASURED: EC50

CC(C)C[C@H](NC(=O)[C@@H]1N[C@H](c2ccccc2)[C@@H]([N+](=O)[O-])[C@@H]1c1ccco1)B(O)O [Example 11] | 1300 nM
CC(C)C[C@H](NC(=O)[C@@H]1CCCN1)B(O)O [MG-319, reference compound] | 25000 nM
CC(C)C[C@H](NC(=O)[C@@H]1N[C@H](c2ccccc2)[C@@H]([N+](=O)[O-])[C@@H]1c1ccccc1)B(O)O [Example 1] | 10000 nM
CC(C)C[C@H](NC(=O)[C@H]1N[C@@H](c2ccccc2)[C@@H]([N+](=O)[O-])[C@@H]1c1ccccc1)B(O)O [Example 4] | 2100 nM
CC(C)C[C@H](NC(=O)[C@@H]1N[C@H](c2ccccc2)[C@@H]([N+](=O)[O-])[C@@H]1c1cccs1)B(O)O [Example 10] | 570 nM

---

- Test system: SK-HEP-1
- EXPERIMENT: Cancer cell growth inhibition, 72 h treatment
- Assay type: cell-based
- CONDITION_LABEL: Homo sapiens, SK-HEP1, Liver cancer SK-HEP-1, Alamar Blue
Measured log10 of EC50, listed per entry.
ATTRIBUTE_MEASURED: log10 of EC50 (log10 of the value in nM)

CC(C)C[C@H](NC(=O)[C@@H]1N[C@H](c2ccccc2)[C@@H]([N+](=O)[O-])[C@@H]1c1cccs1)B(O)O | 2.69
CC(C)C[C@H](NC(=O)[C@@H]1N[C@H](c2ccccc2)[C@@H]([N+](=O)[O-])[C@@H]1c1ccco1)B(O)O | 0.85
CC(C)C[C@H](NC(=O)[C@@H]1CCCN1)B(O)O [MG-319, reference compound] | 3.62
CC(C)C[C@H](NC(=O)[C@@H]1N[C@H](c2ccc3ccccc3c2)[C@@H]([N+](=O)[O-])[C@@H]1c1ccccc1)B(O)O | 2.20
CC(C)C[C@H](NC(=O)[C@@H]1N[C@H](c2ccccc2)[C@@H]([N+](=O)[O-])[C@@H]1c1ccc(F)cc1)B(O)O | 3.28
